Here, each record is paired with measured double positive events data.
Test: inhibitors of CD8+ T cell-vesicle binding, pilot screen, LFA-1/ICAM-1 modulator project, MLPCN validation set, flow cytometry (AID 2523)
Conditions: 2C mouse CD8+ T cells, at 7 µM, stronger effect = lower value; measured here: CD8+/vesicle+ event percentage
Write the value in % as a bare number.

- compound: "COc1ccccc1CN1CCCCC1c1cccnc1 (configuration not stated)"
  numeric_result: 65.8

Ask: Find the measured double positive events of Cn1c(O)c(C=NCCc2c[nH]c3ccccc23)c(=O)n(C)c1=O and report it.
Reply: 76.2

Ask: Give a short answer stating reported double positive events for O=S(=O)(c1ccc(F)cc1)N1CCCCC1c1cccnc1 (configuration not stated) .
Reply: 62

Ask: Provide measured double positive events value, entry: COP(=O)(OC)C(O)C(Cl)(Cl)Cl (configuration not stated)
Reply: 62.8

Ask: Identify the reported double positive events for the following entry. c1ccc2c(c1)[nH]c1cnccc12
Reply: 62.8

Ask: Provide only the value of recorded double positive events for COc1ccc(-c2nc3ccccc3c(=O)o2)cc1
Reply: 78.9

Ask: Indicate the recorded double positive events value for this compound: CN1CC[C@@]23CCCC[C@@H]2[C@@H]1Cc1ccc(O)cc13
Reply: 60.4

----------
Assay: AGP1-GFP expression modulators, hit retest, confirmation, cell-based, flow cytometry, S. cerevisiae, cherry picks (AID 2273);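 also: median GFP channel fluorescence over the whole cell population gate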
Conditions: S. cerevisiae AGP1-GFP strain, 3 h, at 10 µM
Each item that follows carries a reported GFP response, % of DMSO.
Please reply with the bare figure in % and do not write the unit itself.

Examples with answers:
- compound: "C[C@]12CCC(=O)C=C1CC[C@@H]1[C@@H]2CC[C@]2(C)C(=O)CC[C@@H]12"
  unit_of_measurement: "%"
  numeric_result: 91.2
- compound: "O=C1NC(=O)C(=Cc2ccc(Sc3ccccc3)o2)C(=O)N1"
  unit_of_measurement: "%"
  numeric_result: 83.6
- compound: "C[C@]12CCC(=O)C(O)=C1CC[C@@H]1[C@@H]2CC[C@]2(C)C(=O)CC[C@@H]12"
  unit_of_measurement: "%"
  numeric_result: 101
- compound: "C#CCOc1cc(C2C3=C(COC3=O)Nc3cc4c(cc32)OCO4)ccc1OC (centres undefined)"
  unit_of_measurement: "%"
  numeric_result: 103
- compound: "COc1cc(/C=C/C(=O)c2c(O)n(CCc3ccccc3)c(=O)[nH]c2=O)ccc1O"
  unit_of_measurement: "%"
  numeric_result: 102
- compound: "O=C1NC(=S)NC(=O)C1=Cc1ccc2c(c1)CCN2CCCCl"
  unit_of_measurement: "%"
  numeric_result: 87.8

Ask: Given the compound O=c1[nH]c(=S)n(-c2ccccc2)c(O)c1/C=N/N1CCOCC1 , write its reported GFP response, % of DMSO.
Reply: 99.8

Ask: Query GFP response, % of DMSO for CN1C(=O)C(=Cc2ccc(SC3CCCCC3)o2)C(=O)N(C)C1=O
Reply: 101

Ask: Give a short answer stating reported GFP response, % of DMSO for C[C@]12CC[C@@H](O)C[C@@H]1CC[C@@H]1[C@@H]2CC[C@]2(C)[C@@H](O)CC[C@@H]12 .
Reply: 90

----------
Target: Lethal factor (Bacillus anthracis)
Assay: Lethal factor protease inhibitors, Bacillus anthracis, multiplex microsphere cleavage assay, validation set (AID 588461)
Settings: flow cytometry, at 10 µM, stronger effect = higher value
Reported values of inhibition for individual entries
Record the value in %, omitting the unit from your answer.

Solved cases below.
- compound: "COc1ccc(C(=O)c2oc3ccc(Br)cc3c2NC(C)=O)cc1"
  assay_system: "Lethal factor (Bacillus anthracis)"
  inhibition (%): -3.6
- compound: "CCCCOc1ccc(OCCCN2CCOCC2)cc1"
  assay_system: "Lethal factor (Bacillus anthracis)"
  inhibition (%): -4.8
- compound: "COc1ccc(CC(=O)N2CC3(C)CC2CC(C)(C)C3)cc1OC (stereo not drawn)"
  assay_system: "Lethal factor (Bacillus anthracis)"
  inhibition (%): -0.4
- compound: "CC1(C)CC(C(CC(=O)O)c2ccccc2)CCO1 (stereo not drawn)"
  assay_system: "Lethal factor (Bacillus anthracis)"
  inhibition (%): -7.8
- compound: "OCCN1CCN(CCCN2c3ccccc3Sc3ccc(Cl)cc32)CC1"
  assay_system: "Lethal factor (Bacillus anthracis)"
  inhibition (%): 1.2

Ask: Indicate the recorded inhibition value for this compound: O=C(/C=C/Sc1ccccc1)c1ccccc1
Reply: -4.1

Ask: Output measured inhibition for this item: O=C(NC(=S)Nc1ccc(N2CCN(C(=O)c3ccccc3)CC2)cc1)c1cccs1
Reply: -10.5

Ask: Identify measured inhibition associated with CCN(CC)CCN1C(=O)C(=O)/C(=C(/O)c2c(C)[nH]c(C(=O)OC)c2C)C1c1cccnc1 (stereo not drawn)
Reply: -4.4

Ask: Tell us which inhibition value is on record for CCC(=O)c1ccc(O)cc1
Reply: -1.2

Ask: Using the record for Nc1nc(SCc2ccc([N+](=O)[O-])cc2)c2ncn(C3OC(CO)C(O)C3O)c2n1 (stereo not drawn) , state its measured inhibition.
Reply: 5
